Hello, the source for this data is patent US20240279318A1, in case you need it.

target: T1, AFP158/HLA-A*02:01 complex (human); test: SPR, fold vs AS170036 VL1VH1;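 also: crude scFv muteins immobilised on a sensor chip, peptide–MHC complex passed over at several concentrations, binding then buffer-driven dissociation, KD estimated from on- and off-rates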
T1 construct: flowed as analyte in SPR
measuredAttribute: Affinity increase (fold)
Use fold as the unit, but write only the number.

Fill in: Affinity increase of AS170036 VL1VH1-98Q108A (scFv, also called 37-AS170036 VL1VH1-98Q108A) scFv: QSALTQPRSVSGSPGQSVTISCAGTSSDVGSENYVSWYQQHPGKAPKLMIYQVNKRASGVPDRFSGSKSGNTASLTISGLQAEDEADYYCASYRSSDQNIVFGGGTKLTVLGGGGSGGGGSGGGGSEVQLVESGGGLVQPGGSLRLSCAASGFTFSSYAMSWVRQAPGKGLEWVSTINSGTGSPYYADSVKGRFTISRDNSKNTLYLQMNSLRAEDTAVYYCAKNFFDGSWFLAPPAMDYWGQGTLVTVSSHHHHHH is ___
20.5

Fill in: Affinity increase of AS170036 VL1VH1-57H108D (scFv, also called 23-AS170036 VL1VH1-57H108D) scFv: QSALTQPRSVSGSPGQSVTISCAGTSSDVGSENYVSWYQQHPGKAPKLMIYQVNKRASGVPDRFSGSKSGNTASLTISGLQAEDEADYYCASYRSSDHNIVFGGGTKLTVLGGGGSGGGGSGGGGSEVQLVESGGGLVQPGGSLRLSCAASGFTFSSYAMSWVRQAPGKGLEWVSTINSGTGHPYYADSVKGRFTISRDNSKNTLYLQMNSLRAEDTAVYYCAKNFFDGSWFLDPPAMDYWGQGTLVTVSSHHHHHH is ___
23.5
